- assayed-target: Nuclear receptor subfamily 1 group I member 2 (Homo sapiens) (UniProt O75469)
- Sequence (O75469 whole entry, looked up): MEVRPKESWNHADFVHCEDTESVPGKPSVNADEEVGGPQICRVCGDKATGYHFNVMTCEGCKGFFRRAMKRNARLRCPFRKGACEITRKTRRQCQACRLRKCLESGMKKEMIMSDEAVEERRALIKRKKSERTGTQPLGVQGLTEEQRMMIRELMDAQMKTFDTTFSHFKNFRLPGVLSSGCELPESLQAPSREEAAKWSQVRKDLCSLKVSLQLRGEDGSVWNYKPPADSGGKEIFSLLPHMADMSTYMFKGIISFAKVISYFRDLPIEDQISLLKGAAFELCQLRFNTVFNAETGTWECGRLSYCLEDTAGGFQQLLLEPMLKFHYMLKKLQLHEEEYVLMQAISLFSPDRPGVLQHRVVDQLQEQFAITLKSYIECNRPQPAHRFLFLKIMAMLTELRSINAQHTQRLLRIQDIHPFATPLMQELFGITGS
- assay-info: Human pregnane X receptor (PXR) small molecule agonists, qHTS assay (AID 1346982); also: nearly all actives have a fitted effect of over 35% in size
- experimental-setup: PXR-Luc HepG2, CYP3A4 luciferase reporter, 24 h; series mostly up to 92.4 µM
Records with an inconclusive call do not appear. Activity calls are given as the source filed them. Calls follow the shape of the dose curve; as a rule, active = well fitted activation curve with a large enough effect in the repeat runs; inconclusive = weak or mixed curves; inactive = no such curve, though single readings can be large or run the other way.
Labels: active, inactive

{"compound": "CCOC(=O)OC(=O)OCC", "category-label": "inactive"}
{"compound": "CCC(O)CO (stereo not given)", "category-label": "inactive"}
{"compound": "O=C(Nc1ccccc1)c1cc(Cl)ccc1O", "category-label": "active"}
{"compound": "CCOc1nc(F)cc2nc(S(=O)(=O)Nc3c(Cl)cccc3C(=O)OC)nn12", "category-label": "inactive"}
{"compound": "CCCCCCCCc1ccc(Nc2ccc(CCCCCCCC)cc2)cc1", "category-label": "inactive"}

Values from PubChem BioAssay (Tox21)
